Biological target: hERG (Homo sapiens (Human), UniProt Q12809)
Sequence (Q12809 whole entry): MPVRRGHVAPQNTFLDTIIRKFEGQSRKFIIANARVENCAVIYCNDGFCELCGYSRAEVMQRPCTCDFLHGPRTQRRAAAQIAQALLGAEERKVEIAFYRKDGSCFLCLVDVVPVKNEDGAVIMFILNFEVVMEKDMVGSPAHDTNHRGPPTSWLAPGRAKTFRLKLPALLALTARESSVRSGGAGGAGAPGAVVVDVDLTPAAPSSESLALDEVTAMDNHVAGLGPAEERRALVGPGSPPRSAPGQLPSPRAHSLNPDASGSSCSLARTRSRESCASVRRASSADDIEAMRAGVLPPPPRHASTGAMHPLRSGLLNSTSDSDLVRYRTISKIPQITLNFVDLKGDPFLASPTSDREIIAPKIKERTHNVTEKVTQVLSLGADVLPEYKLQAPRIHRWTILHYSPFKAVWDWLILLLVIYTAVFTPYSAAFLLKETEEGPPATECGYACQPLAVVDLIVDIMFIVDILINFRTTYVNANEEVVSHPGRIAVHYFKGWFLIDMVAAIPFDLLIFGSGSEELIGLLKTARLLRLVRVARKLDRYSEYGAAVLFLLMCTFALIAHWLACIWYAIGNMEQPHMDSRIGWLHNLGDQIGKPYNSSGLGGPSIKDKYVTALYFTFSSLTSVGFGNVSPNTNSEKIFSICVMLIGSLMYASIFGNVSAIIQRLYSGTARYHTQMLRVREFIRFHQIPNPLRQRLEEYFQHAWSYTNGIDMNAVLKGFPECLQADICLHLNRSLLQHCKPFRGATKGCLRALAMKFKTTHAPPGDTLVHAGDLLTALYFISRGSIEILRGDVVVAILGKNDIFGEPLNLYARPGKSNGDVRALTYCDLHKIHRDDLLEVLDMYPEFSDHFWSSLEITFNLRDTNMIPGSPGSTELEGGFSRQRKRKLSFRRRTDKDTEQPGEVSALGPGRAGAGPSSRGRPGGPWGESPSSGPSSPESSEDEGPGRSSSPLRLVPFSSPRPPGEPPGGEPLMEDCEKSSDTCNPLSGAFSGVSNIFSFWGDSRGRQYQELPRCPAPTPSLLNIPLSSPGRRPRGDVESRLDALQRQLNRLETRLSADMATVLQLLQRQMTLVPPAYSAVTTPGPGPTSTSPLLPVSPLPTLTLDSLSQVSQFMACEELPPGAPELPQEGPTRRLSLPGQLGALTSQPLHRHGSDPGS
Assay: hERG inhibition, IonWorks patch clamp
Type: cell-based
Conditions: human, pH 7.3; 3 μM; read-out: inhibition of the hERG channel
test_readout: inhibition at 3 µM (%)

molecule | test_readout | meas_value
C#Cc1cc(Nc2nccc(Oc3ccc(NC(=O)Nc4cc(C(C)(C)C)nn4-c4ccc(C)cc4)c4ccccc34)n2)cc(C(=O)NCCOCCOCCOC)c1 [Example 2] | inhibition at 3 µM | 0

* * *

Biological target: CYP2C9 (Homo sapiens (Human))
Sequence (P11712 whole entry): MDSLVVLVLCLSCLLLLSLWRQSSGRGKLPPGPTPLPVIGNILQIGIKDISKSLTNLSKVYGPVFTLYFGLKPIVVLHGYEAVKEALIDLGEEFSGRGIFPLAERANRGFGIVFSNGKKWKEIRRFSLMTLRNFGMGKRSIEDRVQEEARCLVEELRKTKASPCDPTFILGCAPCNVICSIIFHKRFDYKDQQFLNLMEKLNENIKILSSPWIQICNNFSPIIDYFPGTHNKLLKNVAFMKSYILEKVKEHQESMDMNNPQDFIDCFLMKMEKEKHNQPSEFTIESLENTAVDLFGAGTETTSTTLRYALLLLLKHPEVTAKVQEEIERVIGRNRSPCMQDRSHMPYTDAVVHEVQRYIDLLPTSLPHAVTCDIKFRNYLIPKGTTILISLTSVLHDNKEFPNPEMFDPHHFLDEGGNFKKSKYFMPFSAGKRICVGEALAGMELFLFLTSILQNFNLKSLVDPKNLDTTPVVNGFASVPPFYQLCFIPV
Test: CYP450 time-dependent inhibition, CYP2C9
Assay type: in vitro ADME
Settings: CYP2C9, 30 min preincubation
pIC50: −log10 of the molar value.
test_readout: pIC50

smiles_code | test_readout | meas_value
C#Cc1cc(Nc2nccc(Oc3ccc(NC(=O)Nc4cc(C(C)(C)C)nn4-c4ccc(C)cc4)c4ccccc34)n2)cc(C(=O)NCCOCCOCCOC)c1 | pIC50 | < 4.82

* * *

Assay: Pharmacokinetics and colon distribution in mice
Format: in vivo, male C57BL/6 mice
Conditions: male, C57BL/6, plasma, po; mouse, 5 mg/kg p.o., 12 hr; read-out: Mean concentration, Plasma

molecule | concentration at 12 h
C#Cc1cc(Nc2nccc(Oc3ccc(NC(=O)Nc4cc(C(C)(C)C)nn4-c4ccc(C)cc4)c4ccccc34)n2)cc(C(=O)NCCOCCOCCOC)c1 [Example 2] | 0 ng/mL

* * *

Assay: Pharmacokinetics and colon distribution in mice
Type: in vivo, male C57BL/6 mice
Details: male, C57BL/6, po; Mouse, 5 mg/kg p.o., Plasma
test_readout: AUC(0-t) (ng·h/mL)

compound | unit_descriptor | meas_value
C#Cc1cc(Nc2nccc(Oc3ccc(NC(=O)Nc4cc(C(C)(C)C)nn4-c4ccc(C)cc4)c4ccccc34)n2)cc(C(=O)NCCOCCOCCOC)c1 [Example 2] | ng·h/mL | 49

* * *

Assay: Pharmacokinetics and colon distribution in mice
Assay type: in vivo, male C57BL/6 mice
Settings: male, C57BL/6, plasma, po; mouse, 5 mg/kg p.o., 24 hr; read-out: Mean concentration, Plasma

smiles_code | concentration at 24 h [ng/mL]
C#Cc1cc(Nc2nccc(Oc3ccc(NC(=O)Nc4cc(C(C)(C)C)nn4-c4ccc(C)cc4)c4ccccc34)n2)cc(C(=O)NCCOCCOCCOC)c1 | 0

* * *

Experiment: Pharmacokinetics and colon distribution in rats
Type: in vivo, male Wistar rats
Conditions: male, Wistar, colon, po; rat, 5 mg/kg p.o., 24 hr; read-out: Mean concentration, Colon
test_readout: concentration at 24 h

smiles_code | test_readout | meas_value
C#Cc1cc(Nc2nccc(Oc3ccc(NC(=O)Nc4cc(C(C)(C)C)nn4-c4ccc(C)cc4)c4ccccc34)n2)cc(C(=O)NCCOCCOCCOC)c1 | concentration at 24 h | 53.9 ng/g

* * *

Target: CYP2C9 (Homo sapiens (Human))
Test: CYP450 time-dependent inhibition, CYP2C9
Format: in vitro ADME
Settings: CYP2C9, 0 min preincubation
pIC50: −log10 of the molar value.
test_readout: pIC50

smiles_code | test_target | meas_value
C#Cc1cc(Nc2nccc(Oc3ccc(NC(=O)Nc4cc(C(C)(C)C)nn4-c4ccc(C)cc4)c4ccccc34)n2)cc(C(=O)NCCOCCOCCOC)c1 | CYP2C9 (Homo sapiens (Human)) | < 4.82
